- system-under-test: T1, wild-type EGFR protein on the surfaces of A431 tumor cells and normal human primary hepatocytes (human, UniProt P00533 25-1210)
- T1 construct: whole, on cells; Same protein on two cell types; also called human epidermal growth factor receptor; her-1
- protocol-summary: FACS, A431 tumor cells
reported-metric: mean fluorescence intensity (MFI)
The response must be a number in MFI with no trailing unit.

| binder | mean fluorescence intensity (MFI) |
| --- | --- |
| Humanized antibody h63A10A7-18 (antibody, human IgG1, V domains shown, Human IgG1 constant region, human kappa constant region) VH: QVQLVQSGAEVKKPGASVKVSCKASGYTFISFTMHWVKQRPGQGLEWIGYINPNSGYTKYNQKFKDKATLTADQSTSTAYMELSSLRSEDTAVYYCTRGGGRGFAYWGQGTLVTVSS VL: DILMTQSPSSLSASVGDRVTITCHASQDINSNIGWLQQKPGKSFKALIYHGTNLEDGVPSRFSGSGSGADYTLTISSLQPEDFATYYCVQYAQFPFTFGQGTKLEIK | 9140 |
| Humanized antibody h63A10A7-37 (antibody, human IgG1, V domains shown, Human IgG1 constant region, human kappa constant region) VH: QVQLVQSGAEVKKPGASVKVSCKASGYTFISFTMHWVKQRPGQGLEWMGYINPNSGYTKYNQKFKDKATMTRDTSTSTVYMELSSLRSEDTAVYYCTRGGGRGFAYWGQGTLVTVSS VL: DIQMTQSPSSLSASVGDRVTITCHASQDINSNIGWLQQKPGKSFKALIYHGTNLEDGVPSRFSGSGSGADYTLTISSLQPEDFATYYCVQYAQFPFTFGQGTKLEIK | 1320 |
| Humanized antibody h63A10A7-17 (antibody, human IgG1, V domains shown, Human IgG1 constant region, human kappa constant region) VH: QVQLVQSGAEVKKPGASVKVSCKASGYTFISFTMHWVKQRPGQGLEWIGYINPNSGYTKYNQKFKDKATLTRDTSTSTVYMELSSLRSEDTAVYYCTRGGGRGFAYWGQGTLVTVSS VL: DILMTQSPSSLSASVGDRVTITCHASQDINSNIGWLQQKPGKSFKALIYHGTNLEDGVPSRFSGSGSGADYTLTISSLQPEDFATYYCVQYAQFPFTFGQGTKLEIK | 10600 |

Note: attention shifts to another entry.
Lab book: mean fluorescence intensity (MFI) of Humanized antibody h63A10A7-23 (antibody, human IgG1, V domains shown, Human IgG1 constant region, human kappa constant region) VH: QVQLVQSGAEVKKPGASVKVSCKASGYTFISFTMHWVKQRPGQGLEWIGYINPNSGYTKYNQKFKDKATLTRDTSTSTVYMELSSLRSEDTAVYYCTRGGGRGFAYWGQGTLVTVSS VL: DILMTQSPSSLSASVGDRVTITCHASQDINSNIGWLQQKPGKAPKALIYHGTNLEDGVPSRFSGSGSGADYTLTISSLQPEDFATYYCVQYAQFPFTFGQGTKLEIK noted as 4000

The reported measurements were obtained from patent US20210032351A1.
